target_system: human isoleucine zipper-CD40L (IZ-hCD40L) (human) (UniProt P29965)
Sequence (P29965 113-261): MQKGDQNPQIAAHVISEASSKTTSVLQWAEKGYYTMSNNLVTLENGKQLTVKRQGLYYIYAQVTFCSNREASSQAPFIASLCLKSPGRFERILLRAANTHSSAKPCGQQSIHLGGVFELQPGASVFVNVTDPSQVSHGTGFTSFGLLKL
test_name: cell-based or functional assay
parameter: hIZCD40L-driven Human B Cell Proliferation EC50 (nM)

1) 2h572-634 Fc (Fc fusion, not shown: a dimerising Fc or GST) EVQLLESGGGLVQPGGSLRLSCAASGFTFNWELMGWARQAPGKGLEWVSGIEGPGDVTYYADSVKGRFTISRDNSKNTLYLQMNSLRAEDTAVYYCVKVGKDSRSDYRGQGTLVTVSS | 3

(P) 2h572-6 Fc (Fc fusion, not shown: a dimerising Fc or GST) EVQLLESGGGLVQPGGSLRLSCAASGFTFNWQLMGWVRQAPGKGLEWVSGIEGPGDVTYYADSVKGRFTISRDNSKNTLYLQMNSLRAEDTAVYYCVKVGKESNSDYRGQGTLVTVSS
(Q) 2h572-608-N297Qshort Fc (Fc fusion, not shown: a dimerising Fc or GST) EVQLLESGGGLVQPGGSLRLSCAASGFTFNWELMGWARQAPGKGLEWVSGIEGPGDVTYYADSVKGRFTISRDNSKNTLYLQMNSLRAEDTAVYYCVKVGKESNSDYRGQGTLVTVSS
(R) 2h572-633 Fc (Fc fusion, not shown: a dimerising Fc or GST) EVQLLESGGGLVQPGGSLRLSCAASGFTFNWELMGWARQAPGKGLEWVSGIEGPGDVTYYADSVKGRFTISRDNSKNTLYLQMNSLRAEDTAVYYCVKVGKDAKSDYRGQGTLVTVSS
Query: // smallest hIZCD40L-driven Human B Cell Proliferation EC50 at index 0, largest at the end Form entry: ranked labels (order as requested).
Response: P, Q, R
(P: 0.6 nM, Q: 1 nM, R: 3.5 nM)
